List of IC50 values.
# System Tested: neurokinin-1 (NK-1) receptor (Homo sapiens, UniProt P25103)
# Construct: a human glioblastoma-astrocytoma cell line that endogenously express the neurokinin-1 (NK-1) receptor; endogenous in cells
# Sequence (P25103 whole entry): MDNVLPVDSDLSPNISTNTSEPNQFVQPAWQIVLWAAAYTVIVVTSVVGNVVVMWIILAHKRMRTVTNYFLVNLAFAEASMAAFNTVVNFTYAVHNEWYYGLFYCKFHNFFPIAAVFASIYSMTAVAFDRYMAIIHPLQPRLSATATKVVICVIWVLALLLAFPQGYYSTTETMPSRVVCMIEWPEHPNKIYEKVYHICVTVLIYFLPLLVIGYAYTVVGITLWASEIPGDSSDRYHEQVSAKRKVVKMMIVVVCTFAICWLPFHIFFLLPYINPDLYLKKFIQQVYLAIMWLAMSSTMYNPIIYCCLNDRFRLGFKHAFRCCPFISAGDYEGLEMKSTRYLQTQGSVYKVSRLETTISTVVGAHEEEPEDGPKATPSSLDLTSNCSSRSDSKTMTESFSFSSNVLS
# Assay Method Text: NK-1 binding (competition with [125I] Substance P, U373 cell membranes)
# Condition Description: [125I] Substance P displacement

Here's what some known entries look like.
>  <Molecule>
FC(F)(F)c1cc(COCC2(c3ccccc3)CCC(N3CCCC3)C2)cc(C(F)(F)F)c1 (stereo not shown)

>  <Result>
< 20 nM

$$$$
>  <Molecule>
CCNC1CCCC(COCc2cc(C(F)(F)F)cc(C(F)(F)F)c2)(c2ccccc2)C1 (stereo not shown)

>  <Result>
< 20 nM

$$$$
>  <Molecule>
N[C@@H]1CC[C@@](COCc2cc(C(F)(F)F)cc(C(F)(F)F)c2)(c2ccccc2)C1

>  <Result>
< 20 nM

$$$$
>  <Molecule>
FC(F)(F)c1cc(COCC2(c3ccccc3)CCCC(N3CCOCC3)C2)cc(C(F)(F)F)c1 (stereo not shown)

>  <Result>
100 to 300 nM

$$$$
>  <Molecule>
FC(F)(F)c1cc(COCC2(c3ccccc3)CCCC(N3CCCCC3)C2)cc(C(F)(F)F)c1 (stereo not shown)

>  <Result>
20 to 100 nM

$$$$
>  <Molecule>
COCCN(C)C1CCC(COCc2cc(C(F)(F)F)cc(C(F)(F)F)c2)(c2ccccc2)C1 (stereo not shown)

>  <Result>
< 20 nM

$$$$
>  <Molecule>
CNC1CCCC(COCc2cc(C(F)(F)F)cc(C(F)(F)F)c2)(c2ccccc2)C1 (stereo not shown)

>  <Result>
< 20 nM

$$$$
>  <Molecule>
CN(C)C1CCCC(COCc2cc(C(F)(F)F)cc(C(F)(F)F)c2)(c2ccccc2)C1 (stereo not shown)

>  <Result>
100 to 300 nM

$$$$

Q: Give the measured IC50 of CN(C)C1CCC(COCc2cc(C(F)(F)F)cc(C(F)(F)F)c2)(c2ccccc2)C1 (stereo not shown) .
Ans: < 20 nM

Q: Endpoint output: IC50 of FC(F)(F)c1cc(COCC2(c3ccccc3)CCCC(NC3CC3)C2)cc(C(F)(F)F)c1 (stereo not shown) . Value?
Ans: 20 to 100 nM

Q: Would you kindly share the measured IC50 for N[C@H]1CC[C@](COCc2cc(C(F)(F)F)cc(C(F)(F)F)c2)(c2ccccc2)C1 ?
Ans: < 20 nM

Q: Recorded IC50 of N[C@@H]1CC[C@](COCc2cc(C(F)(F)F)cc(C(F)(F)F)c2)(c2ccccc2)C1 , please.
Ans: < 20 nM

Q: Suppose we examine the molecule CN1CCN(C2CCCC(COCc3cc(C(F)(F)F)cc(C(F)(F)F)c3)(c3ccccc3)C2)CC1 (stereo not shown) ; what IC50 value has been reported?
Ans: 100 to 300 nM

Q: Reported IC50, molecule FC(F)(F)c1cc(COCC2(c3ccccc3)CCC(NC3CC3)C2)cc(C(F)(F)F)c1 (stereo not shown) : ____
Ans: < 20 nM

Q: Which IC50 is reported for this molecule? FC(F)(F)c1cc(COCC2(c3ccccc3)CCC(N3CCOCC3)C2)cc(C(F)(F)F)c1 (stereo not shown)
Ans: 20 to 100 nM

Q: Name the reported IC50 value associated with the molecule FC(F)(F)c1cc(COCC2(c3ccccc3)CCC(N3CCCCC3)C2)cc(C(F)(F)F)c1 (stereo not shown)
Ans: < 20 nM

Q: Which IC50 is listed for CCN(CC)C1CCCC(COCc2cc(C(F)(F)F)cc(C(F)(F)F)c2)(c2ccccc2)C1 (stereo not shown) ?
Ans: 20 to 100 nM

Q: Need IC50 of N[C@H]1CC[C@@](COCc2cc(C(F)(F)F)cc(C(F)(F)F)c2)(c2ccccc2)C1 , thanks.
Ans: < 20 nM

Q: // returns reported IC50 for input FC(F)(F)c1cc(COCC2(c3ccccc3)CCCC(N3CCCC3)C2)cc(C(F)(F)F)c1 (stereo not shown)
Ans: 100 to 300 nM

Reference source: patent US7276631B2
